# test-name: viability loss with induced miR-34 in A549 – imaging, A549 dox-inducible miR-34, nuclei and caspase counts, primary screen (AID 1347080)
# protocol-conditions: A549 miR-34 inducible, Hoechst nuclei count, 48 h; measured here: relative caspase fold change +Dox/-Dox
Please use YES for fold change under 0.9 and NO for everything else, ties included.

{"columns": ["compound", "classification"],
 "data": [
  ["COc1ccc(-c2nc(N3CCOCC3)c3sc(CN(C)c4ncc(C(=O)NO)cn4)cc3n2)cn1", "YES"],
  ["Cn1cnc(-c2cc3nccc(Oc4ccc(NC(=S)NC(=O)Cc5ccccc5)cc4F)c3s2)c1", "NO"],
  ["O=C(O)[C@H](Cc1c[nH]c2ccccc12)N1C(=O)c2ccccc2C1=O", "YES"],
  ["Cc1nc(N)sc1-c1ccnc(Nc2ccc(N3CCOCC3)cc2)n1", "NO"],
  ["CC1=C(CC/C(C)=C/CCC2C=CC(C3=CC(=O)OC3O)OC2O)C(C)(C)CCC1 (stereo not given)", "YES"],
  ["NC(C(=O)O)c1ccc(C(=O)O)c(C(=O)O)c1 (stereo not given)", "YES"],
  ["O=C(O)CCC/C=C\\C[C@H]1C(=O)C=C[C@@H]1CC[C@@H](O)CCc1ccccc1", "NO"],
  ["Cc1ccc(NC(=O)C(C)C)cc1C1CCN(Cc2ccc(Oc3ccc(F)c(F)c3)cc2)CC1", "YES"],
  ["Nc1nnc(Sc2ncc([N+](=O)[O-])s2)s1", "NO"]
]}

---

# test-name: viability loss in pontine glioma line – cell-based, SU-DIPG-IV, MIPE4.0, CellTiter-Glo, qHTS, dose response (AID 1347063);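 further: compound exposure lasted 48 hours before the viability readout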
# protocol-conditions: CellTiter-Glo ATP luminescence
Inconclusive results are not listed. Calls of active or inactive are those of the source. Cut-off not given; nearly all actives show AC50 up to about 30 µM.
Labels: active, inactive

{"columns": ["compound", "classification"],
 "data": [
  ["COc1ccc(Cn2ccc3ccc(C(=O)NO)cc32)cc1", "inactive"],
  ["CC(C)Oc1cc(Nc2nc(N[C@@H](C)c3ccc(F)cn3)ncc2Cl)[nH]n1", "active"],
  ["O=C1CCCC(=O)C1C(=O)c1ccc(C(F)(F)F)cc1[N+](=O)[O-]", "inactive"],
  ["O=C(C=CC#Cc1cccc(NS(=O)(=O)c2ccccc2)c1)NO", "active"],
  ["CC[C@@H](C)[C@H](NC(=O)[C@H](CC1CCCCC1)NC(=O)c1ccno1)C(=O)N1CCC2(CCc3ccccc32)CC1", "inactive"],
  ["C=CC(=O)N1CCc2ccc(-n3c(=O)ccc4cnc5ccc(-c6cnn(C)c6)cc5c43)cc21", "active"],
  ["CN1CCC(CNc2ccc3ncc(-c4cccc(OC(F)(F)F)c4)n3n2)CC1", "active"],
  ["Cc1ccccc1C(C(=O)NC1CCCCC1)N(C(=O)Cn1ccnc1C)c1cccc(F)c1 (stereo not given)", "inactive"],
  ["Nc1ccccc1NC(=O)c1ccc(CNC(=O)OCc2cccnc2)cc1", "active"],
  ["O=C(NCCS(=O)(=O)c1ccc(C(F)(F)F)cn1)c1ccc(Cl)cc1", "inactive"]
]}

---

# test-name: growth inhibition of DIPG cells – cell-based, MIPE5.0 library, qHTS (AID 1347068);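 on IC50: cells exposed to compound for 48 hours before viability readout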
# protocol-conditions: SU-DIPG-XXV viability
Results filed as inconclusive are left out. Active and inactive are the calls of the source. The limit is not given here; nearly all actives have IC50 up to about 30 µM.

{"columns": ["compound", "IC50"],
 "data": [
  ["COc1ccc(S(=O)(=O)Nc2cccnc2Nc2ccc(O)cc2)cc1", "10.5 µM (active)"],
  ["Cc1cc(Nc2ncc(Cl)c(Nc3ccccc3S(=O)(=O)C(C)C)n2)c(OC(C)C)cc1C1CCNCC1", "3.32 µM (active)"],
  ["Cn1ncnc1[C@H]1c2n[nH]c(=O)c3cc(F)cc(c23)N[C@@H]1c1ccc(F)cc1", "inactive"],
  ["CC1(C)CC(=O)c2c(C(F)(F)F)nn(-c3ccc(C(N)=O)c(NC4CCC(OC(=O)CN)CC4)c3)c2C1 (stereo not drawn)", "0.263 µM (active)"],
  ["O=C(NO)c1ccc(C2=Nc3ccccc3Oc3ccccc32)cc1", "14.8 µM (active)"],
  ["CCn1nnc2c(N3CCOCC3)nc(-c3ccc(NC(=O)Nc4ccc(C(=O)N5CCN(C)CC5)cc4)cc3)nc21", "0.742 µM (active)"],
  ["c1ccc2c(-c3cnn4cc(-c5ccc(OCCN6CCOCC6)cc5)cnc34)ccnc2c1", "inactive"],
  ["Cc1cc(CN2CCN(c3c(Br)cnc4nc(-c5ccc(N6CCN(C)CC6)cc5)[nH]c34)CC2)no1", "8.33 µM (active)"],
  ["COc1ccc(C(=O)C2CCN(CC(=O)N(Cc3nc4c(c(=O)[nH]3)COCC4)CC3CC3)CC2)cc1", "inactive"],
  ["CCOCOC[C@H](C[C@H](C)C(=O)NO)NC(=O)c1ccc(Oc2ccccc2)cc1", "inactive"],
  ["CNC(=O)[C@@H](NC(=O)[C@H](CC(C)C)[C@H](O)C(=O)NO)C(C)(C)C", "inactive"],
  ["COc1ccc2cc(OCC3(C(=O)O)CN(C(=O)c4ccc(F)cc4)C3)ccc2c1", "inactive"],
  ["CNC(=O)c1cccc2cc(Oc3ccnc4cc(OCC5(N)CC5)c(OC)cc34)ccc12", "7.42 µM (active)"],
  ["CN(C)CC[C@H](CSc1ccccc1)Nc1ccc(S(=O)(=O)NC(=O)c2ccc(N3CCN(Cc4ccccc4-c4ccc(Cl)cc4)CC3)cc2)cc1[N+](=O)[O-]", "13.2 µM (active)"],
  ["CCC(C)CNCC(=O)N1CCc2sccc2C1c1cccc(C)n1 (stereo not drawn)", "inactive"],
  ["NS(=O)(=O)OC[C@@H]1C[C@@H](n2ccc3c(N[C@H]4CCc5ccccc54)ncnc32)C[C@@H]1O", "inactive"],
  ["COCCOC(=O)N1CCN(S(=O)(=O)c2cc(F)c(Oc3ccc(Cl)cc3)c(F)c2)C(C(=O)NO)C1 (stereo not drawn)", "20.9 µM (active)"],
  ["Nc1nccn2c(C3CCC(C(=O)O)CC3)nc(-c3cc4cccc(Cl)c4[nH]3)c12 (stereo not drawn)", "inactive"]
]}
